biological target: T1, gp120IIIB (HIV, UniProt P04578 33-511); experiment: dot blot: 2 µg peptide spotted, 5 µg gp120IIIB in 20 mL, anti-gp120 antibody
T1 construct: Bought protein
Readout Type: binding result

INSERT INTO results (binder, endpoint_result) VALUES
  ('EGEGEEEGEE (Synthetic peptide from GenScript; also called α1A/1B detyrosinated isoform) [tubulin α1A/1B C-terminal tail (CTT) peptide, detyrosinated isoform]', 'no binding'),
  ('EGEGEEEGQQ (Synthetic variant peptide from GenScript; also called α1A/1B more basic) [tubulin α1A/1B C-terminal tail (CTT) peptide, more basic variant EGEGEEEGQQ]', 'no binding'),
  ('EDEDEGEE (Synthetic peptide from GenScript; also called α4 detyrosinated isoform) [tubulin α4 C-terminal tail (CTT) peptide, detyrosinated isoform]', 'no binding'),
  ('EGEGEEEGQQQQ (Synthetic variant peptide from GenScript; also called α1A/1B more basic) [tubulin α1A/1B C-terminal tail (CTT) peptide, more basic variant EGEGEEEGQQQQ]', 'no binding'),
  ('EGEGEEEGQQQ (Synthetic variant peptide from GenScript; also called α1A/1B more basic) [tubulin α1A/1B C-terminal tail (CTT) peptide, more basic variant EGEGEEEGQQQ]', 'no binding'),
  ('EGEGEEEGEEY (Synthetic peptide from GenScript; also called α1A/1B tyrosinated isoform) [tubulin α1A/1B C-terminal tail (CTT) peptide, tyrosinated isoform]', 'no binding'),
  ('EEEEGEDEA (Synthetic peptide from GenScript) [tubulin β2A/2B C-terminal tail (CTT) peptide]', 'no binding'),
  ('EDEDEGE (Synthetic peptide from GenScript; also called α4 Δ2 isoform) [tubulin α4 C-terminal tail (CTT) peptide, Δ2 isoform]', 'no binding'),
  ('EDEDEGEEY (Synthetic peptide from GenScript; also called α4 tyrosinated isoform) [tubulin α4 C-terminal tail (CTT) peptide, tyrosinated isoform]', 'no binding');
